FYI, the data here is from the supplement of paper PMC10307832.

- Test system: SK-LU-1
- assay.notes: relative viability (nuclei count vs DMSO), 5 days (fraction); higher = more cells survive
- condition.details: first compound 50 µM
property.measured: relative viability
Number, no unit, nothing else.

For this compound ( O=C(O)CCCCC(CCSCc1ccccc1)SCc1ccccc1 (stereo unspecified) [CPI-613] + Cc1cc(Nc2cc(N3CCN(C)CC3)nc(Sc3ccc(NC(=O)C4CC4)cc3)n2)n[nH]1 [Tozasertib] (partner 0.1 µM) ), measured relative viability is 0.299

For this compound ( O=C(O)CCCCC(CCSCc1ccccc1)SCc1ccccc1 (stereo unspecified) [CPI-613] + Cc1nc(NC(=O)N2CCC[C@H]2C(N)=O)sc1-c1ccnc(C(C)(C)C(F)(F)F)c1 [Alpelisib] (partner 2 µM) ), measured relative viability is 0.57

For this compound ( O=C(O)CCCCC(CCSCc1ccccc1)SCc1ccccc1 (stereo unspecified) [CPI-613] + O=C(c1cc(Cc2n[nH]c(=O)c3ccccc23)ccc1F)N1CCN(C(=O)C2CC2)CC1 [Olaparib] (partner 8 µM) ), measured relative viability is 0.427

For this compound ( O=C(O)CCCCC(CCSCc1ccccc1)SCc1ccccc1 (stereo unspecified) [CPI-613] + CCNC(=O)c1noc(-c2cc(C(C)C)c(O)cc2O)c1-c1ccc(CN2CCOCC2)cc1 [Luminespib] (partner 0.01 µM) ), measured relative viability is 0.198

For this compound ( O=C(O)CCCCC(CCSCc1ccccc1)SCc1ccccc1 (stereo unspecified) [CPI-613] + CC1(C)CCC(c2ccc(Cl)cc2)=C(CN2CCN(c3ccc(C(=O)NS(=O)(=O)c4ccc(N[C@H](CCN5CCOCC5)CSc5ccccc5)c(S(=O)(=O)C(F)(F)F)c4)cc3)CC2)C1 [Navitoclax] (partner 0.5 µM) ), measured relative viability is 0.857

For this compound ( O=C(O)CCCCC(CCSCc1ccccc1)SCc1ccccc1 (stereo unspecified) [CPI-613] + CS(=O)(=O)CCNCc1ccc(-c2ccc3ncnc(Nc4ccc(OCc5cccc(F)c5)c(Cl)c4)c3c2)o1 [Lapatinib] (partner 2 µM) ), measured relative viability is 0.752

---

- Test system: SK-LU-1
- assay.notes: relative viability (nuclei count vs DMSO), 5 days (fraction); higher = more cells survive
- condition.details: first compound 0.04 µM
Exam item: assign true to entries whose relative viability is below 1 and false to entries at or above 1. Note that a value of exactly 1 receives false.

Please review the following examples before continuing.
compound: Cc1sc2c(c1C)C(c1ccc(Cl)cc1)=N[C@@H](CC(=O)OC(C)(C)C)c1nnc(C)n1-2 [JQ1] + CC(C)C[C@H](NC(=O)[C@H](Cc1ccccc1)NC(=O)c1cnccn1)B(O)O [Bortezomib] (partner 0.002 µM)
category.label: false
--
compound: Cc1sc2c(c1C)C(c1ccc(Cl)cc1)=N[C@@H](CC(=O)OC(C)(C)C)c1nnc(C)n1-2 [JQ1] + Cc1cc(Nc2cc(N3CCN(C)CC3)nc(Sc3ccc(NC(=O)C4CC4)cc3)n2)n[nH]1 [Tozasertib] (partner 0.1 µM)
category.label: true
--
compound: Cc1sc2c(c1C)C(c1ccc(Cl)cc1)=N[C@@H](CC(=O)OC(C)(C)C)c1nnc(C)n1-2 [JQ1] + CS(=O)(=O)CCNCc1ccc(-c2ccc3ncnc(Nc4ccc(OCc5cccc(F)c5)c(Cl)c4)c3c2)o1 [Lapatinib] (partner 2 µM)
category.label: true
--
compound: Cc1sc2c(c1C)C(c1ccc(Cl)cc1)=N[C@@H](CC(=O)OC(C)(C)C)c1nnc(C)n1-2 [JQ1] + COc1cccc2cc(-c3nc([C@H]4CC[C@H](C(=O)O)CC4)n4ncnc(N)c34)[nH]c12 [OSI-027] (partner 0.5 µM)
category.label: true
--
compound: Cc1sc2c(c1C)C(c1ccc(Cl)cc1)=N[C@@H](CC(=O)OC(C)(C)C)c1nnc(C)n1-2 [JQ1] + Cc1nc(NC(=O)N2CCC[C@H]2C(N)=O)sc1-c1ccnc(C(C)(C)C(F)(F)F)c1 [Alpelisib] (partner 2 µM)
category.label: false

Consider the record given below.
**Q:** Bench note: check whether Cc1sc2c(c1C)C(c1ccc(Cl)cc1)=N[C@@H](CC(=O)OC(C)(C)C)c1nnc(C)n1-2 [JQ1] + Nc1ncn([C@H]2C[C@H](O)[C@@H](CO)O2)c(=O)n1 [Decitabine] (partner 2 µM) shows relative viability below 1
**A:** true

---

- Tested on: SW 1573
- assay.notes: relative viability (nuclei count vs DMSO), 5 days (fraction); higher = more cells survive
- condition.details: first compound 500 µM
Exam item: assign condition met to entries whose relative viability is below 0.07 and condition not met to entries at or above 0.07. Note that a value of exactly 0.07 receives condition not met.

Please review the following examples before continuing.
compound: O=C(O)CCCCC(CCSCc1ccccc1)SCc1ccccc1 (centres undefined) [CPI-613] + N=C(N)NC(=N)NCCc1ccccc1 [Phenformin] (partner 250 µM)
category.label: condition met
//
compound: O=C(O)CCCCC(CCSCc1ccccc1)SCc1ccccc1 (centres undefined) [CPI-613] + Cc1nc(NC(=O)N2CCC[C@H]2C(N)=O)sc1-c1ccnc(C(C)(C)C(F)(F)F)c1 [Alpelisib] (partner 2 µM)
category.label: condition not met
//
compound: O=C(O)CCCCC(CCSCc1ccccc1)SCc1ccccc1 (centres undefined) [CPI-613] + Nc1nc2[nH]cc(CCc3ccc(C(=O)N[C@@H](CCC(=O)O)C(=O)O)cc3)c2c(=O)[nH]1 [Pemetrexed] (partner 0.2 µM)
category.label: condition met

**Q:** Bench note: check whether O=C(O)CCCCC(CCSCc1ccccc1)SCc1ccccc1 (centres undefined) [CPI-613] + Nc1ncn([C@H]2C[C@H](O)[C@@H](CO)O2)c(=O)n1 [Decitabine] (partner 2 µM) shows relative viability below 0.07
**A:** condition met

**Q:** Bench note: check whether O=C(O)CCCCC(CCSCc1ccccc1)SCc1ccccc1 (centres undefined) [CPI-613] + COc1cccc2cc(-c3nc([C@H]4CC[C@H](C(=O)O)CC4)n4ncnc(N)c34)[nH]c12 [OSI-027] (partner 0.5 µM) shows relative viability below 0.07
**A:** condition met

**Q:** Bench note: check whether O=C(O)CCCCC(CCSCc1ccccc1)SCc1ccccc1 (centres undefined) [CPI-613] + Cc1cc(Nc2cc(N3CCN(C)CC3)nc(Sc3ccc(NC(=O)C4CC4)cc3)n2)n[nH]1 [Tozasertib] (partner 0.1 µM) shows relative viability below 0.07
**A:** condition met

**Q:** Bench note: check whether O=C(O)CCCCC(CCSCc1ccccc1)SCc1ccccc1 (centres undefined) [CPI-613] + C[C@]1(O)C[C@@H](c2nc(-c3ccc4ccc(-c5ccccc5)nc4c3)c3c(N)nccn32)C1 [Linsitinib] (partner 1 µM) shows relative viability below 0.07
**A:** condition not met

**Q:** Bench note: check whether O=C(O)CCCCC(CCSCc1ccccc1)SCc1ccccc1 (centres undefined) [CPI-613] + CCNC(=O)c1noc(-c2cc(C(C)C)c(O)cc2O)c1-c1ccc(CN2CCOCC2)cc1 [Luminespib] (partner 0.01 µM) shows relative viability below 0.07
**A:** condition not met

**Q:** Bench note: check whether O=C(O)CCCCC(CCSCc1ccccc1)SCc1ccccc1 (centres undefined) [CPI-613] + CS(=O)(=O)CCNCc1ccc(-c2ccc3ncnc(Nc4ccc(OCc5cccc(F)c5)c(Cl)c4)c3c2)o1 [Lapatinib] (partner 2 µM) shows relative viability below 0.07
**A:** condition not met

---

- System: HCC-827
- assay.notes: relative viability (nuclei count vs DMSO), 5 days (fraction); higher = more cells survive
- condition.details: first compound 8 µM
Overview of reported relative viability across a group of compounds:
Number, no unit, nothing else.

compound: O=c1[nH]c2ccccc2n1C1CCN(CCCC(c2ccc(F)cc2)c2ccc(F)cc2)CC1 [Pimozide] + CC(=O)Nc1cccc(-n2c(=O)n(C3CC3)c(=O)c3c(Nc4ccc(I)cc4F)n(C)c(=O)c(C)c32)c1 [Trametinib] (partner 0.02 µM)
relative viability: 0.561
--
compound: O=c1[nH]c2ccccc2n1C1CCN(CCCC(c2ccc(F)cc2)c2ccc(F)cc2)CC1 [Pimozide] + COc1cccc2cc(-c3nc([C@H]4CC[C@H](C(=O)O)CC4)n4ncnc(N)c34)[nH]c12 [OSI-027] (partner 0.5 µM)
relative viability: 0.769
--
compound: O=c1[nH]c2ccccc2n1C1CCN(CCCC(c2ccc(F)cc2)c2ccc(F)cc2)CC1 [Pimozide] + CCNC(=O)c1noc(-c2cc(C(C)C)c(O)cc2O)c1-c1ccc(CN2CCOCC2)cc1 [Luminespib] (partner 0.01 µM)
relative viability: 0.582

Attention now shifts to the item below.
For this compound ( O=c1[nH]c2ccccc2n1C1CCN(CCCC(c2ccc(F)cc2)c2ccc(F)cc2)CC1 [Pimozide] + Cc1cc(Nc2cc(N3CCN(C)CC3)nc(Sc3ccc(NC(=O)C4CC4)cc3)n2)n[nH]1 [Tozasertib] (partner 0.1 µM) ), measured relative viability is 0.405
